Target: human ether-à-go-go-related gene (hERG) potassium channel (human);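 further: peak tail current of the secondary pulse compared with the same well before compound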
Assay: primary screen, population patch clamp on CHO cells stably expressing hERG; higher = less effect of the substance
About 14,000 (4.5%) of roughly 310,000 compounds showed an effect of 50% or more. The effect is printed as a negative number. The sample holds strong results, similar compounds and a random draw of the others, so the mix is not that of the screen.
Measure Name: hERG current change (%, negative = inhibition) at 10uM (%)

INSERT INTO assay_data (compound, result) VALUES
  ('COc1cc(CN(C)Cc2cccc3ccccc23)cc([N+](=O)[O-])c1O', 11.9),
  ('O=C(NCc1ccc(F)cc1)c1cccnc1C(=O)O', 13.5),
  ('Brc1ccc([C@H]2CN3CCSC3=N2)cc1.O=C(O)C(=O)O', -35.7),
  ('COc1ccc(OCCN(C)Cc2c(O)ccc3ccccc23)cc1', 19),
  ('CC(=O)c1sc(N2CCOCC2)nc1-c1ccccc1', -6.27),
  ('COc1ccc(CC(=O)NCc2ccc(F)cc2)cc1S(=O)(=O)N1CCOCC1', -8.29),
  ('CN1c2ccccc2C(O)=C(C(=S)Nc2ccccc2)S1(=O)=O', 22.7),
  ('COc1ccc(CCN(C)Cc2c(O)ccc3cc(Br)ccc23)cc1OC', -59.5),
  ('Cc1cccc(NC(=O)CN(C)CC(=O)NC(c2ccccc2)c2ccccc2)c1C', -30.5),
  ('Cc1cc(F)ccc1S(=O)(=O)N1CCCOC1CNC(=O)C(=O)NCc1cccnc1 (stereo not shown)', 7.92);

* * *

Target: human ether-à-go-go-related gene (hERG) potassium channel (human);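 further: peak tail current of the secondary pulse compared with the same well before compound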
Assay: primary screen, population patch clamp on CHO cells stably expressing hERG; higher = less effect of the substance
Among all 310,000 compounds or so, about 14,000 (4.5%) showed an effect of 50% or more. The effect is printed as a negative number. The entries come from a sample that favours strong results as a whole.
Measure Name: hERG current change (%, negative = inhibition) at 10uM (%)

INSERT INTO results (compound, measurement_target, unit_label, result) VALUES
  ('COc1ccc(N2CCN(S(=O)(=O)CCNC(=O)COc3ccccc3OC)CC2)cc1', 'human ether-à-go-go-related gene (hERG) potassium channel (human)', '%', -1.02),
  ('O=S(=O)(c1ccc(Br)s1)N1CCN(c2ccnc3cc(Cl)ccc23)CC1', 'human ether-à-go-go-related gene (hERG) potassium channel (human)', '%', -14.8),
  ('CC(=O)N1CCN(C(=O)c2ccc(-n3c(C)ccc3C)cc2)CC1', 'human ether-à-go-go-related gene (hERG) potassium channel (human)', '%', -1.54),
  ('O=C(c1sccc1-c1ccccc1)N1CCN(S(=O)(=O)c2ccccc2F)CC1', 'human ether-à-go-go-related gene (hERG) potassium channel (human)', '%', -49.3),
  ('O=S(=O)(c1ccccc1)N1CCN(c2ccnc3cc(Cl)ccc23)CC1', 'human ether-à-go-go-related gene (hERG) potassium channel (human)', '%', -84),
  ('COc1ccccc1-c1nc(SCC(=O)O)n[nH]1', 'human ether-à-go-go-related gene (hERG) potassium channel (human)', '%', -1.65),
  ('COc1ccc(OCC(=O)NCCS(=O)(=O)N2CCN(c3ccc(F)cc3)CC2)cc1', 'human ether-à-go-go-related gene (hERG) potassium channel (human)', '%', -8.69),
  ('Cc1ccc(SC(C)c2nc(-c3ccncc3)no2)cc1 (stereo not drawn)', 'human ether-à-go-go-related gene (hERG) potassium channel (human)', '%', -24.3),
  ('COc1cccc(NC(=O)C23CCC(C)(C(=O)O2)C3(C)C)c1 (stereo not drawn)', 'human ether-à-go-go-related gene (hERG) potassium channel (human)', '%', -5.46),
  ('COC(=O)c1cc(N=CC2=C(O)CC(C)(C)CC2=O)cc(C(=O)OC)c1', 'human ether-à-go-go-related gene (hERG) potassium channel (human)', '%', -16.3),
  ('COc1ccccc1NC(=O)Cn1c(CN2CCCCC2)nc2ccccc2c1=O', 'human ether-à-go-go-related gene (hERG) potassium channel (human)', '%', -43.7),
  ('COc1ccc(N2CCN(S(=O)(=O)CCNC(=O)COc3ccccc3C)CC2)cc1', 'human ether-à-go-go-related gene (hERG) potassium channel (human)', '%', 1.17),
  ('O=[N+]([O-])c1ccc(N2CCN(S(=O)(=O)c3ccccc3)CC2)cc1', 'human ether-à-go-go-related gene (hERG) potassium channel (human)', '%', -46.9),
  ('CCCc1nnc(NC(=O)c2ccncc2)s1', 'human ether-à-go-go-related gene (hERG) potassium channel (human)', '%', -3.78),
  ('O=[N+]([O-])c1ccc(S(=O)(=O)N2CCN(c3ccnc4cc(Cl)ccc34)CC2)cc1', 'human ether-à-go-go-related gene (hERG) potassium channel (human)', '%', -73.5),
  ('O=C(CSc1ccccc1C(=O)O)NC1CCCCCCC1', 'human ether-à-go-go-related gene (hERG) potassium channel (human)', '%', 17.6),
  ('O=S(=O)(c1cccs1)N1CCN(c2ccccc2Cl)CC1', 'human ether-à-go-go-related gene (hERG) potassium channel (human)', '%', 9.51),
  ('O=S(=O)(c1cccs1)N1CCN(c2ccnc3cc(Cl)ccc23)CC1', 'human ether-à-go-go-related gene (hERG) potassium channel (human)', '%', -68.4),
  ('CC1CCC(NC(=O)CCS(=O)(=O)c2ccc3c(c2)CC(C)N3C(=O)C2CC2)CC1 (stereo not drawn)', 'human ether-à-go-go-related gene (hERG) potassium channel (human)', '%', 7.85),
  ('Cc1ccccc1OCC(=O)NCCS(=O)(=O)N1CCN(c2ccc(F)cc2)CC1', 'human ether-à-go-go-related gene (hERG) potassium channel (human)', '%', -66.6),
  ('N#Cc1cccc(S(=O)(=O)N2CCN(c3ccnc4cc(Cl)ccc34)CC2)c1', 'human ether-à-go-go-related gene (hERG) potassium channel (human)', '%', -70.7);

* * *

Molecular target: human ether-à-go-go-related gene (hERG) potassium channel (human, UniProt Q12809);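 further: peak tail current of the secondary pulse compared with the same well before compound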
Sequence (Q12809 whole entry, looked up): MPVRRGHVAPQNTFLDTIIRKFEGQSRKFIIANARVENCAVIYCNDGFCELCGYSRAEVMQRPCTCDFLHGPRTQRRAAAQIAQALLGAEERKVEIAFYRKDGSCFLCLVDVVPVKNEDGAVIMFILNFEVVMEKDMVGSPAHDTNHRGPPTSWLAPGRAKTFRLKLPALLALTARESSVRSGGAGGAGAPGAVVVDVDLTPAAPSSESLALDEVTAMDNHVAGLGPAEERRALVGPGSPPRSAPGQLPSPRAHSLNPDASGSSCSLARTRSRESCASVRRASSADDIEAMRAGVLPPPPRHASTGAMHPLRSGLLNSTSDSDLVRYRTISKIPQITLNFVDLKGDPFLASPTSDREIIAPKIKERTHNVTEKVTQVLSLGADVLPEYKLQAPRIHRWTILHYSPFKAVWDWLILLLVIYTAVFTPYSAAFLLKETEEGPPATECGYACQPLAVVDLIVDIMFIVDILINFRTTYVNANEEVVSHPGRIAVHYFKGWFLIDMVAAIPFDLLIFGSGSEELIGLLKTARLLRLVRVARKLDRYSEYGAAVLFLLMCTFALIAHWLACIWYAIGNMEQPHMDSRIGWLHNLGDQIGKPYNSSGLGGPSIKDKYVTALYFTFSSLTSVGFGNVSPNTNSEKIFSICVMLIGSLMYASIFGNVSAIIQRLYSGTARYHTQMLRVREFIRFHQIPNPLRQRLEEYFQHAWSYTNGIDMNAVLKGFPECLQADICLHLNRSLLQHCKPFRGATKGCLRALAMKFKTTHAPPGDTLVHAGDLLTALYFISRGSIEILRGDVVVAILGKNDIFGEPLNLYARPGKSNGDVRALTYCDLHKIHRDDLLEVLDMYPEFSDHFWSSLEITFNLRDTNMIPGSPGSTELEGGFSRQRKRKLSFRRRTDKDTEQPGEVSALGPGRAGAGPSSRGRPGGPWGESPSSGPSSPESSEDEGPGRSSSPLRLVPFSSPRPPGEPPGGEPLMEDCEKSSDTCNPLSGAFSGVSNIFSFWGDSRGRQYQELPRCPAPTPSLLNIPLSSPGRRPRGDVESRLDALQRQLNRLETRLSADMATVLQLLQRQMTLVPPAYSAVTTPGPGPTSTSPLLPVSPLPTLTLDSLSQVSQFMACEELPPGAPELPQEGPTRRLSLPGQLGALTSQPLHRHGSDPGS
Test: primary screen, population patch clamp on CHO cells stably expressing hERG; higher = less effect of the substance
Hit rate of the full screen: of about 310,000 compounds, about 14,000 (4.5%) showed an effect of 50% or more. The effect is printed as a negative number. For the sample, strong results were picked, then their nearest neighbours and some compounds at random.
Measure Name: hERG current change (%, negative = inhibition) at 10uM (%)

INSERT INTO results (compound, result) VALUES
  ('COc1cccc(CC2(CO)CCN(S(=O)(=O)c3ccc(OC)cc3OC)CC2)c1', -10.7),
  ('O=C(Nc1cccc(F)c1)Nc1ccnn1C1CCN(C(=O)c2ccccn2)CC1', 14.2),
  ('Cc1csc2ncnc(NC3CCN(Cc4ccccc4)CC3)c12', -65.5),
  ('C=CCn1c(=O)c(C(=O)NCc2ccccc2)c(O)c2ccccc21', 15.4),
  ('CSCC(C)N1CCC(CO)(CCCc2ccccc2)CC1 (stereo not drawn)', -55.7),
  ('Cc1ccccc1Nc1nc(NCc2ccco2)c2ccccc2n1.Cl', -63.6),
  ('COc1ccc(NC(=O)c2cc3ccccc3[nH]2)cc1', 15.4),
  ('Cc1ccc(Nc2nc(NCc3ccco3)c3ccccc3n2)cc1.Cl', 16.9),
  ('Cc1sc2ncnc(N[C@@H](Cc3ccccc3)C(=O)O)c2c1C', 14),
  ('Cc1ccc(C(=O)Nc2nc3ccc(S(C)(=O)=O)cc3s2)o1', -0.566),
  ('COc1ccccc1Nc1nc(NCc2ccco2)c2ccccc2n1.Cl', -20.3),
  ('Cl.c1ccc(Nc2nc(NCc3ccco3)c3ccccc3n2)cc1', -71),
  ('CC(COc1ccccc1)N1CCC(CO)(CCc2ccccc2)CC1 (stereo not drawn)', -80.3),
  ('OC1CCC(Nc2ncnc3sccc23)CC1 (stereo not drawn)', 13.2),
  ('Cc1cccc(C)c1OCCNC(=O)OCc1ccccc1', -6.74),
  ('Cc1ccccc1-c1nnc(CN2CCN(C(=O)c3ccco3)CC2)o1', -14.2),
  ('COc1cc(NC(=O)C/C(C)=N/NC(=O)C2CCCCC2)c(OC)cc1Cl', 9.28),
  ('CN(C)Cc1nc2ccccc2c(=O)n1CC(=O)Nc1cccc(S(=O)(=O)N2CCOCC2)c1', -14.4),
  ('COc1ccc(CC2(CO)CCN(C(C)COc3ccccc3)CC2)cc1 (stereo not drawn)', -82),
  ('CCc1noc(C)c1C(=O)OCC(=O)c1ccc(OC)c(OC)c1', -5.3),
  ('COc1ccc(C(=O)C2CCN(C(=S)NCC3CCCO3)CC2)cc1 (stereo not drawn)', -7.23),
  ('Cc1csc2c(NC3CCN(Cc4ccccc4)CC3)ncnc12', -31.8),
  ('COc1ccc(CC2(CO)CCN(C(=O)NCc3ccccc3)CC2)cc1', -2.8),
  ('O=C(c1ccco1)N1CCN(Cc2nnc(-c3cccc(Br)c3)o2)CC1', -62.2),
  ('O=C(Cc1ccccc1[N+](=O)[O-])NCc1ccncc1', 6.57),
  ('O=C(CCCc1ccccc1)NCCCc1ccccc1', -10.9),
  ('O=C(Nc1ccon1)C(Sc1ccccc1)c1ccccc1 (stereo not drawn)', -8.32),
  ('COc1ccc(CC2(CO)CCN(S(=O)(=O)c3sccc3C)CC2)cc1', -20.9),
  ('COc1ccc(Nc2ncnc3ccc([N+](=O)[O-])cc23)c(OC)c1', -0.867),
  ('O=C1C(Cc2ccc3[nH]ccc3c2)NC(=S)N1c1ccccc1 (stereo not drawn)', 7.61),
  ('COc1ccc(NC(=O)C/C(C)=N/NC(=O)C(=O)NC2CCCCC2)c(OC)c1', -8.46),
  ('Cc1sc2ncnc(Nc3ccccc3)c2c1C', 2.79),
  ('CCOCCCNC(=O)C1CCN(S(=O)(=O)c2ccc3nc4c(c(C(=O)O)c3c2)CCCCC4)CC1', 49.4),
  ('O=C(Cc1ccsc1)NNC(=O)c1ccccc1O', 7.87),
  ('CN(C)S(=O)(=O)N1CCC(CO)(CCc2ccccc2)CC1', -8.86),
  ('Cl.Fc1ccc(Nc2nc(NCc3ccco3)c3ccccc3n2)cc1', -37.2),
  ('Cl.Oc1ccccc1Nc1nc(NCc2ccco2)c2ccccc2n1', -29.3),
  ('CC1CCN(Cc2nnc(-c3cccc(Br)c3)o2)CC1', -0.585),
  ('Cc1csc2ncnc(NCCc3ccccn3)c12', -22.4),
  ('COc1ccc(NC(=O)CCCNS(=O)(=O)c2cccs2)cc1', 2.91),
  ('CC1CCCN(C(=O)c2ccccc2OC2CCN(S(C)(=O)=O)CC2)C1 (stereo not drawn)', 11.1),
  ('O=C(c1ccco1)N1CCN(Cc2nnc(-c3ccccc3F)o2)CC1', 9.67);

Sourced from paper PMC4336329
